# Test system: iBMDM (immortalised mouse bone-marrow-derived macrophages), LPS-stimulated
# assayRemarks: mitochondrial superoxide (MitoSOX fluorescence) fold increase over unstimulated control; higher = more LPS-induced mitochondrial ROS (less inhibition)
# measurementSetup: inhibitor concentration: 500 nM; LPS: 100 ng/ml; time after LPS: 2 h
attributeMeasured: mitochondrial superoxide

[[record]]
compound = "CCc1ccc(/C=C2/SC(=S)NC2=O)cc1"
attributemeasured = "mitochondrial superoxide"
observedvalue = 1.22

[[record]]
compound = "C#Cc1cccc(Nc2ncnc3cc(OC)c(OCCCCCCC(=O)NO)cc23)c1"
attributemeasured = "mitochondrial superoxide"
observedvalue = 1.2

[[record]]
compound = "OCCn1cc(-c2cnc3nnn(Cc4ccc5ncccc5c4)c3n2)cn1"
attributemeasured = "mitochondrial superoxide"
observedvalue = 1.41

[[record]]
compound = "CCCS(=O)(=O)Nc1ccc(F)c(C(=O)c2c[nH]c3ncc(Cl)cc23)c1F"
attributemeasured = "mitochondrial superoxide"
observedvalue = 1.26

[[record]]
compound = "O=C(Nc1cccc(Nc2ncc(Br)c(NCCc3cnc[nH]3)n2)c1)N1CCCC1"
attributemeasured = "mitochondrial superoxide"
observedvalue = 1.11

[[record]]
compound = "O=c1ncn2nc(Sc3ccc(F)cc3F)ccc2c1-c1c(Cl)cccc1Cl"
attributemeasured = "mitochondrial superoxide"
observedvalue = 1.21

[[record]]
compound = "C[C@@H](Oc1cc(-n2cnc3ccc(CN4CCN(C)CC4)cc32)sc1C(N)=O)c1ccccc1C(F)(F)F"
attributemeasured = "mitochondrial superoxide"
observedvalue = 1.22

[[record]]
compound = "CC1=C(C(=O)Nc2cc3cn[nH]c3cc2F)C(c2ccc(C(F)(F)F)cc2)CC(=O)N1 (centres undefined)"
attributemeasured = "mitochondrial superoxide"
observedvalue = 1.26

[[record]]
compound = "N#Cc1c(Oc2ccc(F)c(NC(=O)Cc3cccc(C(F)(F)F)c3)c2)ccc2nc(NC(=O)C3CC3)sc12"
attributemeasured = "mitochondrial superoxide"
observedvalue = 1.49

[[record]]
compound = "COc1ccc(C(=O)Nc2sc3c(c2C(N)=O)CCCC3)cc1OC"
attributemeasured = "mitochondrial superoxide"
observedvalue = 1.49

[[record]]
compound = "O=c1cc(-c2cccc3c2Sc2ccccc2S3)oc(N2CCOCC2)c1"
attributemeasured = "mitochondrial superoxide"
observedvalue = 1.48

[[record]]
compound = "O=C1C(c2c(O)[nH]c3ccccc23)=Nc2ccccc21"
attributemeasured = "mitochondrial superoxide"
observedvalue = 1.34

[[record]]
compound = "Cc1nc(Nc2ncc(C(=O)Nc3c(C)cccc3Cl)s2)cc(N2CCN(CCO)CC2)n1"
attributemeasured = "mitochondrial superoxide"
observedvalue = 1.61

[[record]]
compound = "O=C(c1cccc(Cl)c1F)N1CCN(Cc2cccc(Nc3nccs3)n2)CC1"
attributemeasured = "mitochondrial superoxide"
observedvalue = 1.22

[[record]]
compound = "Cn1cnc2c(F)c(Nc3ccc(Br)cc3F)c(C(=O)NOCCO)cc21"
attributemeasured = "mitochondrial superoxide"
observedvalue = 1.26

[[record]]
compound = "C=CC(=O)Nc1cccc(Nc2nc(Nc3ccc(N4CCN(C(C)=O)CC4)cc3OC)ncc2C(F)(F)F)c1"
attributemeasured = "mitochondrial superoxide"
observedvalue = 1.49

[[record]]
compound = "Cn1c(Nc2ccc(C(F)(F)F)cc2)nc2cc(Oc3ccnc(-c4ncc(C(F)(F)F)[nH]4)c3)ccc21"
attributemeasured = "mitochondrial superoxide"
observedvalue = 1.2

[[record]]
compound = "S=C(NCc1ccc2c(c1)OCO2)N1CCN(c2ncnc3c2oc2ccccc23)CC1"
attributemeasured = "mitochondrial superoxide"
observedvalue = 1.21

[[record]]
compound = "COc1cccc2cc(-c3nc([C@H]4CC[C@H](C(=O)O)CC4)n4ncnc(N)c34)[nH]c12"
attributemeasured = "mitochondrial superoxide"
observedvalue = 1.39

